Below, each entry is listed alongside its reported OX2R agonist activity (3 μM, %).
- EXPERIMENTAL SYSTEM: human orexin type 2 receptor (Homo sapiens)
- Construct: expressed in transfected cells
- Sequence (O43614 whole entry): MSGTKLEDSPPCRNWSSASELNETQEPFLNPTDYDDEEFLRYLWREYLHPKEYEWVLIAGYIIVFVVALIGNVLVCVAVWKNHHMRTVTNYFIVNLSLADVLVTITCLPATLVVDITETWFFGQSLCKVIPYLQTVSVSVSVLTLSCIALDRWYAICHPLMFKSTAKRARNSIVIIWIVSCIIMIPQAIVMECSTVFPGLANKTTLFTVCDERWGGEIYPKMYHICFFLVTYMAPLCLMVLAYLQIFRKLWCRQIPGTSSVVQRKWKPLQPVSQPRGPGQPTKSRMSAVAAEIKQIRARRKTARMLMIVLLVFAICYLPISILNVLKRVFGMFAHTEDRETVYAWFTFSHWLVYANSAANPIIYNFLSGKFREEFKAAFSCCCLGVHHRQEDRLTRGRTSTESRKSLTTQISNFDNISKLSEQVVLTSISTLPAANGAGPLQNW
- ASSAY METHOD TEXT: Measurement of orexin type 2 receptor agonist activity (calcium indicator fluorescence, CHO cells forcibly expressing human OX2 receptor)
- Assay type: cell-based
- CONDITION NOTES: compound at 3 μM; 0% = DMSO, 100% = orexin A (human) 10 nM
PARAMETER: OX2R agonist activity (3 μM, %)

{"columns": ["COMPOUND", "PARAMETER", "RESULT UNIT", "OBSERVED MEASUREMENT"],
 "data": [
  ["CCS(=O)(=O)N[C@H]1[C@@H](F)CN(C(=O)C2CCO2)[C@H]1Cc1cccc(-c2cc(C)cc(F)c2)c1F (stereo partly drawn) [Example 501]", "OX2R agonist activity (3 μM, %)", "%", 96],
  ["CCS(=O)(=O)N[C@@H]1[C@H](Cc2cccc(-c3ccccc3)c2F)N(C(=O)N2CCC2)CC1(F)F [Example 228]", "OX2R agonist activity (3 μM, %)", "%", 99],
  ["CN(C)S(=O)(=O)N[C@@H]1[C@H](Cc2cccc(-c3cccc(F)c3)c2F)N(C(=O)N2CCC2)CC1(F)F [Example 547]", "OX2R agonist activity (3 μM, %)", "%", 98],
  ["CCS(=O)(=O)N[C@@H]1[C@H](Cc2cccc(-c3cccc(F)c3)c2)N(C(=O)C(C)C)CC1(F)F [Example 97]", "OX2R agonist activity (3 μM, %)", "%", 90],
  ["CCS(=O)(=O)N[C@H]1[C@@H](F)CN(C(=O)N(C)C)[C@H]1Cc1cccc(-c2ccccc2)c1F [Example 295]", "OX2R agonist activity (3 μM, %)", "%", 95],
  ["CN(C)S(=O)(=O)N[C@@H]1[C@H](Cc2cccc(-c3cc(F)cc(F)c3)c2F)N(C(=O)N2CCC2)CC1(F)F [Example 548]", "OX2R agonist activity (3 μM, %)", "%", 94],
  ["CCS(=O)(=O)N[C@H]1[C@@H](F)CN(C(=O)C2CCO2)[C@H]1Cc1cccc(-c2cccc(F)c2)c1F (stereo partly drawn) [Example 217]", "OX2R agonist activity (3 μM, %)", "%", 96],
  ["Cc1cc(F)cc(-c2cccc(C[C@H]3[C@@H](NS(=O)(=O)C4CC4)C(F)(F)CN3C(=O)N(C)C)c2F)c1 [Example 522]", "OX2R agonist activity (3 μM, %)", "%", 97],
  ["CCS(=O)(=O)N[C@H]1[C@@H](F)CN(C(=O)C2(O)CCC2)[C@H]1Cc1cccc(-c2cccc(C)c2)c1F [Example 536]", "OX2R agonist activity (3 μM, %)", "%", 98],
  ["CCS(=O)(=O)N[C@H]1[C@@H](F)CN(C(=O)[C@H]2CCCO2)[C@H]1Cc1cccc(-c2ccccc2)c1F [Example 413]", "OX2R agonist activity (3 μM, %)", "%", 99],
  ["CCS(=O)(=O)N[C@H]1[C@@H](F)CN(C(=O)C(C)C)[C@H]1Cc1cccc(-c2cccc(Cl)c2)c1F [Example 298]", "OX2R agonist activity (3 μM, %)", "%", 96],
  ["CS(=O)(=O)N[C@@H]1[C@H](Cc2cccc(-c3ccccc3)c2F)N(C(=O)C2(O)CCC2)CC1(F)F [Example 76]", "OX2R agonist activity (3 μM, %)", "%", 98],
  ["CS(=O)(=O)N[C@@H]1[C@H](Cc2cccc(-c3cc(F)cc(Cl)c3)c2F)N(C(=O)C2CCO2)CC1(F)F (stereo partly drawn) [Example 266]", "OX2R agonist activity (3 μM, %)", "%", 83],
  ["CN(C)S(=O)(=O)N[C@@H]1[C@H](Cc2cccc(-c3ccccc3)c2F)N(C(=O)C2(O)CCC2)CC1(F)F [Example 145]", "OX2R agonist activity (3 μM, %)", "%", 99],
  ["CCS(=O)(=O)N[C@@H]1[C@H](Cc2cccc(-c3cccc(C)c3)c2F)N(C(=O)C(C)(C)O)CC1(F)F [Example 465]", "OX2R agonist activity (3 μM, %)", "%", 106],
  ["CCS(=O)(=O)N[C@@H]1[C@H](Cc2cccc(-c3cccc(F)c3F)c2F)N(C(=O)[C@H]2CCCO2)CC1(F)F [Example 455]", "OX2R agonist activity (3 μM, %)", "%", 85],
  ["CCS(=O)(=O)N[C@@H]1[C@H](Cc2cccc(-c3cccc(F)c3)c2F)N(C(=O)C(C)(C)O)CC1(F)F [Example 8]", "OX2R agonist activity (3 μM, %)", "%", 99],
  ["CS(=O)(=O)N[C@@H]1[C@H](Cc2csc(-c3cc(F)cc(F)c3)n2)N(C(=O)C2(O)CCC2)CC1(F)F (racemic) [Example 136]", "OX2R agonist activity (3 μM, %)", "%", 87],
  ["CS(=O)(=O)N[C@@H]1[C@H](Cc2cccc(-c3cccc(F)c3)c2)N(C(=O)[C@H]2CCCO2)CC1(F)F [Example 26]", "OX2R agonist activity (3 μM, %)", "%", 100],
  ["CCS(=O)(=O)N[C@@H]1[C@H](Cc2cccc(-c3cccc(C)c3)c2F)N(C(=O)C2(O)CCC2)CC1(F)F [Example 275]", "OX2R agonist activity (3 μM, %)", "%", 85],
  ["CCS(=O)(=O)N[C@@H]1[C@H](Cc2cccc(-c3cccc(C(F)F)c3)c2F)N(C(=O)C2CCO2)CC1(F)F (stereo partly drawn) [Example 504]", "OX2R agonist activity (3 μM, %)", "%", 90],
  ["CCS(=O)(=O)N[C@@H]1[C@H](Cc2cccc(-c3cc(F)ccc3F)c2F)N(C(=O)C(C)(C)O)CC1(F)F [Example 67]", "OX2R agonist activity (3 μM, %)", "%", 111],
  ["O=C(C1CCO1)N1C[C@H](F)[C@H](NS(=O)(=O)C2CC2)[C@@H]1Cc1cccc(-c2cc(F)ccc2F)c1F (stereo partly drawn) [Example 481]", "OX2R agonist activity (3 μM, %)", "%", 104],
  ["CCS(=O)(=O)N[C@@H]1[C@H](Cc2cccc(-c3ccccc3)c2F)N(C(=O)C2CC2)CC1(F)F [Example 205]", "OX2R agonist activity (3 μM, %)", "%", 91],
  ["O=C(C1CC1)N1C[C@H](F)[C@H](NS(=O)(=O)C2CC2)[C@@H]1Cc1cccc(-c2cccc(F)c2F)c1F [Example 377]", "OX2R agonist activity (3 μM, %)", "%", 95],
  ["CCS(=O)(=O)N[C@H]1[C@@H](F)CN(C(=O)C2CCO2)[C@H]1Cc1cccc(-c2cc(F)cc(F)c2)c1F (stereo partly drawn) [Example 305]", "OX2R agonist activity (3 μM, %)", "%", 103],
  ["CN(C)C(=O)N1CC(F)(F)[C@H](NS(=O)(=O)N(C)C)[C@@H]1Cc1cccc(-c2ccccc2)c1F [Example 138]", "OX2R agonist activity (3 μM, %)", "%", 97]
]}
